Where these numbers come from: patent US11667697

# testSystem: T1, VACV L1 protein (vaccinia virus, UniProt P07612 1-185)
# T1 sequence: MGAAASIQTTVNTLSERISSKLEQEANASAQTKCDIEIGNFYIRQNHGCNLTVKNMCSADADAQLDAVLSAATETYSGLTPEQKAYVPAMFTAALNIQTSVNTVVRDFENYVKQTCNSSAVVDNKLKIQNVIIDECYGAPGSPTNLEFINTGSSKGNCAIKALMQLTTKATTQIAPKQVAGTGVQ
# measurementNotes: cell-based or functional assay
endpoint: PRNT Emax, VACV MV
A complete answer gives the number followed by the unit.

VACV-33 (antibody, V domains shown, human IgG1, anti-L1) VH: QLQLQESGPGLVKPSETLSLTCTVSGGSISSGGYYWGWIRQPPGKGLEWIASIYYSGSTYYNPSLKSRVTISVDTSKTQFSLKLSSVTAADTAVYYCARQSSSTGGFHYWGQGTLVTVSS VL: QSVLTQPPSVSGAPGQRVTISCTGSSSNIGAGYDVHWYQHLPGTAPKLLIYGNSNRPSGVPDRFSGSKSGTSASLAITGLQAEDEANYYCQSYDSSLSGREVFGGGTQLTVL: 56%
MPXV-26 (antibody, V domains shown, human IgG1, anti-L1) VH: QVQLVQSGGGLIQPGGSLRLSCVVSGFNVATNYMSWVRQAPGKGLEWVSVIYSGGSTYYADSVKGRFTISRDNSKNTVFLQMNSLRPEDTAAYYCAKGGGLGLDYWGQGTLVTVSS VL: QSALTQPPSASGSPGQSVTITCTGSSSDVGGYNYVSWYQQHPGKAPKVVIYEVNKRPSGVPHRFSGSKSGNTASLTVSGLQAEDEADYYCSSYAGTETVAFGGGTKLTVL: 95%

For each entry beneath this line, provide reported PRNT Emax, VACV MV.
1. VACV-34 (antibody, V domains shown, human IgG1, anti-L1) VH: QVQLVESGGGLVQPGRSLRLSCAASGFTFDDYAMHWVRQAPGKGLEWVSGLSWNSGSIGYADSVKGRFTISRDNAKNSLYLQMNSLRAEDTALYYCAKETEKYYYDSSGYDYWGQGTLVTVSS VL: EIVLTQSPGTLSLSPGERATLSCRASQSVSSIYLAWYQQKPGQAPRLLIYGASSRATGIPDRFSGSGSGTDFTLTISRLEPEDFAVYYCQQYGSRGTFGQGTKLEIK
2. MPXV-87 (antibody, V domains shown, human IgG1, anti-L1) V domain 1: QVQLVQSGAEVKKPGASVKVSCKASGYTFTSHGIIWVRQAPGQGLEWMGWISVYNDNTNSAQKFQDRVTMTTATSTSTAYMELRSLRSDDTAVYYCARSSSGPRYYYYGMDVWGQGTTSP V domain 2: QSVVTQPPSVSGAPGQRVTISCTGSSSNIGAGYAVHWYYQLPGIAPKLLIFGNNNRPSGVPDRFSGSKSGTSASLAITGLQAEDEADYYCQSYDSSLSGWVFGGGTQVTVL

Marked response:
76%
61%
